Target: Gal4-RORγ-LBD (Homo sapiens, UniProt P51449)
Construct: expressed in transfected cells
Sequence (P51449 269-508 limits assumed): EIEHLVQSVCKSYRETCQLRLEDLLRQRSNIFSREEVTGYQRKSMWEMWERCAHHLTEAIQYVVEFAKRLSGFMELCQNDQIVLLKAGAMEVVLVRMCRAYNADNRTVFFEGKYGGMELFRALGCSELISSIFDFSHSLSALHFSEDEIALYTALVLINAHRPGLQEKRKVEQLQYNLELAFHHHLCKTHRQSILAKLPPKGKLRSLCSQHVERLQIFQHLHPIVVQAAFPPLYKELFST
Experiment: Gal4-RORγ Luciferase Reporter Assay in HEK-293T Cells
Format: cell-based
Conditions: HEK-293 cells, luciferase reporter, in presence of ursolic acid
pEC50: −log10 of the molar value.
observable: pEC50

[
  {
    "compound": "C[C@@H]1[C@@H](O)Cc2ccc(/C=C/c3c(F)cccc3Cl)cc2N1S(=O)(=O)c1cccc(C(F)(F)F)c1 (racemic) [Example 176]",
    "subject of test": "Gal4-RORγ-LBD (Homo sapiens, UniProt P51449)",
    "reported result": "5.30 to 6.30"
  },
  {
    "compound": "C/C(=C\\c1ccc2c(c1)N(S(=O)(=O)c1cccc(C(F)(F)F)c1)C[C@H](CCNC(=O)C(C)(C)O)O2)c1c(F)cccc1Cl [Example 115]",
    "subject of test": "Gal4-RORγ-LBD (Homo sapiens, UniProt P51449)",
    "reported result": "> 6.30"
  },
  {
    "compound": "CC(=O)N[C@@H]1Cc2ccc(/C=C(\\C)c3c(F)cccc3Cl)cc2N(S(=O)(=O)c2cccc(C(F)(F)F)c2)C1 [Example 165]",
    "subject of test": "Gal4-RORγ-LBD (Homo sapiens, UniProt P51449)",
    "reported result": "> 6.30"
  },
  {
    "compound": "C/C(=C\\c1ccc2c(c1)N(S(=O)(=O)c1cccc(C(F)(F)F)c1)C[C@H](O)C2)c1c(F)cccc1Cl [Example 162]",
    "subject of test": "Gal4-RORγ-LBD (Homo sapiens, UniProt P51449)",
    "reported result": "> 6.30"
  }
]

Would you mind listing pEC50 for each of the following compounds?
1. C/C(=C\c1ccc2c(c1)N(S(=O)(=O)c1cccc(C(F)(F)F)c1)C[C@H](CCN1CCOCC1)O2)c1c(F)cccc1Cl [Example 119A]
2. CCOC(=O)C1CCN(CCC[C@H]2CN(S(=O)(=O)c3cccc(C(F)(F)F)c3)c3cc(/C=C(\C)c4c(F)cccc4Cl)ccc3O2)CC1 [Example 119E]
3. C/C(=C\c1ccc2c(c1)C(S(=O)(=O)c1cccc(C(F)(F)F)c1)CC(CNC(=O)C1CC1)O2)c1c(F)cccc1Cl (stereo not shown) [Example 183]

["> 6.30", "5.30 to 6.30", "5.30 to 6.30"]

----------
Task for the reader: assign each of the following compounds its reported pEC50.
Target: Gal4-RORγ-LBD (Homo sapiens)
Construct: expressed in transfected cells
Sequence (P51449 269-508 limits assumed): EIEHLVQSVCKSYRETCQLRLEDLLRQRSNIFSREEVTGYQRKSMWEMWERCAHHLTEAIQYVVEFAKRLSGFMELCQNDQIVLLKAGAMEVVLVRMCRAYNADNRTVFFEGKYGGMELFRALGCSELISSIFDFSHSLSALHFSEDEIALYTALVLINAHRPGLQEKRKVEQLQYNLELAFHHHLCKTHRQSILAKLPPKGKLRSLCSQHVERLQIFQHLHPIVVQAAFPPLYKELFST
Experiment: Gal4-RORγ Luciferase Reporter Assay in HEK-293T Cells
Format: cell-based
Details: HEK-293 cells, luciferase reporter, with ursolic acid
pEC50: −log10 of the molar value.

Some solved cases for reference:
[
  {
    "compound": "CCn1cc(S(=O)(=O)N2C[C@H]([C@@H](C)NC(C)=O)Oc3ccc(/C=C(\\C)c4c(F)cccc4Cl)cc32)c(Cl)n1",
    "pEC50": "> 6.30"
  },
  {
    "compound": "CCOc1nn(CC)cc1S(=O)(=O)N1C[C@H](CCC(=O)OC)Oc2ccc(/C=C/c3ccccc3SC)cc21 [Example 89AV]",
    "pEC50": "> 6.30"
  },
  {
    "compound": "O=C(O)CC[C@H]1CN(S(=O)(=O)c2cc(Cl)cnc2OCCO)c2cc(/C=C/c3c(F)cccc3Cl)ccc2O1 [Example 89AL]",
    "pEC50": "5.30 to 6.30"
  },
  {
    "compound": "COC(=O)CC[C@H]1CN(S(=O)(=O)c2cccc(C(F)(F)F)c2)c2cc(/C=C(\\C)c3c(Cl)cccc3Cl)ccc2O1 [Example 86AF]",
    "pEC50": "5.30 to 6.30"
  },
  {
    "compound": "O=C(O)CC[C@H]1CN(S(=O)(=O)c2cccc(C(F)(F)F)c2)c2cc(CC3CCCCC3)ccc2O1",
    "pEC50": "5.30 to 6.30"
  }
]

Switching to the query record.
Consider the compound CCC(=Cc1ccc2c(c1)N(S(=O)(=O)c1cccc(C(F)(F)F)c1)C[C@H](CCC(=O)O)O2)CC [Example 95E] and give its measured pEC50.
> 6.30

----------
Target: RORγ-LBD (Homo sapiens, UniProt P51449)
Construct: made in house; host or cells: SF9 cells (baculovirus); used as diluted lysate
Sequence (P51449 269-508 limits assumed): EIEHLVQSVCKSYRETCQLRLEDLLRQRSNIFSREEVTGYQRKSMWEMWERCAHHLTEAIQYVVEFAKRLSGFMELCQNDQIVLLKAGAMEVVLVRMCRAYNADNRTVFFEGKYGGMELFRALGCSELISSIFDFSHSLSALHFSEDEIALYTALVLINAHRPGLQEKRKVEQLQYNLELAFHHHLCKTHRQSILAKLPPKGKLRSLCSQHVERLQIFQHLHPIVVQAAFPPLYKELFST
Experiment: RORγ-Ligand Binding Domain (LBD) TR-FRET Assay
Assay type: biochemical
Settings: RORγ-LBD TR-FRET
observable: EC50

Would you mind listing EC50 for each of the following compounds?
1. CCOc1nn(CC)cc1S(=O)(=O)N1C[C@H](CCC(=O)O)Oc2ccc(/C=C(\C)c3c(Cl)cccc3C(F)(F)F)cc21 [Example 86AW]
2. CC(C)=Cc1ccc2c(c1)N(S(=O)(=O)c1cccc(C(F)(F)F)c1)C[C@H](CCC(=O)O)O2 [Example 95AB]

< 0.5 µM
< 0.5 µM

Consider the compound Cc1ccc(/C=C/c2ccc3c(c2)N(S(=O)(=O)c2cccc(OC(F)F)c2)C[C@H](CCC(=O)O)O3)cc1 [Example 89BE] and give its measured EC50.
0.5 to 5 µM

----------
Task for the reader: assign each of the following compounds its reported pEC50.
Target: Gal4-RORγ-LBD (Homo sapiens)
Construct: expressed in transfected cells
Experiment: Gal4-RORγ Luciferase Reporter Assay in HEK-293T Cells
Type: cell-based
Conditions: HEK-293 cells, luciferase reporter, with ursolic acid
pEC50: −log10 of the molar value.

Some solved cases for reference:
[
  {
    "compound": "COC(=O)CC[C@H]1CN(S(=O)(=O)c2cccc(OC(F)F)c2)c2c(ccc(/C=C(\\C)c3c(F)cccc3Cl)c2C)O1",
    "pEC50": "5.30 to 6.30"
  },
  {
    "compound": "CCOc1nn(CC)cc1S(=O)(=O)N1C[C@H](CCC(=O)OC)Oc2ccc(/C=C/c3c(Cl)cccc3C(F)F)cc21 [Example 89EI]",
    "pEC50": "> 6.30"
  },
  {
    "compound": "CCn1cc(S(=O)(=O)N2C[C@H](CCC(=O)O)Oc3ccc(/C=C/c4ncccc4Cl)cc32)c(Cl)n1 [Example 89CQ]",
    "pEC50": "5.30 to 6.30"
  },
  {
    "compound": "COC(=O)CC[C@H]1CN(S(=O)(=O)c2cccc(OC(F)F)c2)c2c(ccc(/C=C(\\C)c3c(F)cccc3Cl)c2F)O1",
    "pEC50": "5.30 to 6.30"
  },
  {
    "compound": "C/C(=C\\c1cc(F)c2c(c1)N(S(=O)(=O)c1cccc(OC(F)F)c1)C[C@H](CCC(=O)O)O2)c1c(F)cccc1Cl",
    "pEC50": "5.30 to 6.30"
  }
]

Would you mind listing pEC50 for each of the following compounds?
1. CCOc1nn(CC)cc1S(=O)(=O)N1C[C@H](CCC(=O)OC)Oc2ccc(/C=C/c3ccccc3Cl)cc21 [Example 89BD]
2. CCOc1nn(CC)cc1S(=O)(=O)N1C[C@H](CCC(=O)O)Oc2ccc(/C=C/c3c(F)cccc3F)cc21 [Example 89AE]
3. COc1cccc(C(F)(F)F)c1/C=C/c1ccc2c(c1)N(S(=O)(=O)c1cccc(C(F)(F)F)c1)C[C@H](CCC(=O)O)O2 [Example 89ER]
4. COC(=O)CC[C@H]1CN(S(=O)(=O)c2cccc(C(F)(F)F)c2)c2cc(/C=C/c3cccnc3C(F)(F)F)ccc2O1 [Example 89DF]
5. COC(=O)CC[C@H]1CN(S(=O)(=O)c2cccc(C(C)C)c2)c2cc(/C=C(\C)c3c(F)cccc3Cl)ccc2O1 [Example 86R]
6. CCOc1ncc(C(F)(F)F)cc1S(=O)(=O)N1C[C@H](CCC(=O)OC)Oc2ccc(/C=C(\C)c3c(F)cccc3Cl)cc21
7. O=C(O)CC[C@H]1CN(S(=O)(=O)c2cccc(C(F)(F)F)c2)c2cc(/C=C/c3cccc(Cl)c3C(F)(F)F)ccc2O1 [Example 89CO]
8. O=C(O)CC[C@H]1CN(S(=O)(=O)c2cccc(OC(F)F)c2)c2cc(/C=C/c3ccccc3C(F)(F)F)ccc2O1 [Example 89AO]

["< 5.00", "5.30 to 6.30", "> 6.30", "< 5.00", "> 6.30", "5.30 to 6.30", "5.30 to 6.30", "5.30 to 6.30"]

Every entry's value here was drawn from patent US9896441B2.
